Tested on: F380Y/beta2Delta
Experiment: modulators of BK channel variants, profiling panel, selectivity assay, cell-based, U2OS BacMam, thallium flux, beta subunits (AID 1259406);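 further: initial slope of Thallos dye fluorescence rise after thallium is added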
Conditions: at 30 µM
Threshold check on log fold change Tl+ flux: strictly below -0.01 is TRUE; on or above -0.01 is FALSE.

MOLECULE: O=C1c2cc(S(=O)(=O)O)ccc2CCC1S(=O)(=O)O (stereo not drawn)
TESTED_ON: F380Y/beta2Delta
CATEGORY: FALSE

MOLECULE: CCOC(=O)c1cnn(C(=O)c2ccc(-n3c(C)ccc3C)cc2)c1N
TESTED_ON: F380Y/beta2Delta
CATEGORY: TRUE

MOLECULE: Cc1nn(S(=O)(=O)c2ccccc2)c(C)c1Oc1ccc(Cl)cc1
TESTED_ON: F380Y/beta2Delta
CATEGORY: TRUE

MOLECULE: CCOC(=O)c1cc(NC(=O)CC(C)(C)CC(=O)O)ccc1N1CCCCC1
TESTED_ON: F380Y/beta2Delta
CATEGORY: FALSE

MOLECULE: O=c1[nH]c2ccc(Cl)cc2c2oc(-c3ccccc3)nc12
TESTED_ON: F380Y/beta2Delta
CATEGORY: TRUE

MOLECULE: CCOC(=O)c1ccc(OCC#Cc2ccc(C(F)(F)F)cn2)cc1
TESTED_ON: F380Y/beta2Delta
CATEGORY: TRUE

MOLECULE: Fc1cccc(Cl)c1CSc1nccn1-c1cccnc1
TESTED_ON: F380Y/beta2Delta
CATEGORY: FALSE

MOLECULE: Cc1ccc(S(=O)(=O)Oc2c(Cc3ccccc3)c(=O)n(C)c3ccccc23)cc1
TESTED_ON: F380Y/beta2Delta
CATEGORY: TRUE

MOLECULE: CCSc1n[nH]c(=S)s1
TESTED_ON: F380Y/beta2Delta
CATEGORY: FALSE

MOLECULE: O=C(ON(C(=O)c1ccc(F)cc1)C1C2CC3CC(C2)CC1C3)c1ccc(F)cc1 (stereo not drawn)
TESTED_ON: F380Y/beta2Delta
CATEGORY: FALSE

MOLECULE: C/C(=C\C(=O)OCCCCCCCCC(=O)O)C[C@@H]1OC[C@H](C[C@@H]2O[C@H]2[C@@H](C)[C@H](C)O)[C@@H](O)[C@H]1O
TESTED_ON: F380Y/beta2Delta
CATEGORY: FALSE

MOLECULE: Cc1ncc(CSc2nc(C(C)(C)C)cs2)c(CO)c1O
TESTED_ON: F380Y/beta2Delta
CATEGORY: TRUE

MOLECULE: O=S(=O)(NCc1ccc2c(c1)CCO2)c1cccs1
TESTED_ON: F380Y/beta2Delta
CATEGORY: TRUE

MOLECULE: CC(=O)CCCCn1cnc2c1c(=O)n(C)c(=O)n2C
TESTED_ON: F380Y/beta2Delta
CATEGORY: TRUE

MOLECULE: CCOC(=O)Cn1c(=O)ccc2c(C)cc(C)nc21
TESTED_ON: F380Y/beta2Delta
CATEGORY: FALSE

MOLECULE: CC(C)(C)NC(=S)NNc1c(Cl)cncc1Cl
TESTED_ON: F380Y/beta2Delta
CATEGORY: TRUE

MOLECULE: O=C1c2c(O)cc(O)cc2O[C@H](c2ccc(O)c(O)c2)[C@@H]1O
TESTED_ON: F380Y/beta2Delta
CATEGORY: FALSE

MOLECULE: O=C1CCC(=O)N1c1ccc(S(=O)(=O)NCCCN2CCN(Cc3ccccc3)CC2)cc1
TESTED_ON: F380Y/beta2Delta
CATEGORY: FALSE

MOLECULE: O=C(Nc1ccccc1)OCc1cc(-c2ccccc2)c(C(F)(F)F)s1
TESTED_ON: F380Y/beta2Delta
CATEGORY: TRUE

MOLECULE: CC(=O)OCC(OC(C)=O)C(OC(C)=O)C(OC(C)=O)C(C#N)OC(C)=O (stereo not drawn)
TESTED_ON: F380Y/beta2Delta
CATEGORY: FALSE

MOLECULE: CCCn1c(=O)c(Br)cn(-c2ccccc2C)c1=O
TESTED_ON: F380Y/beta2Delta
CATEGORY: TRUE

MOLECULE: O=C(NC(CO)C(O)c1ccc([N+](=O)[O-])cc1)C(Cl)Cl (stereo not drawn)
TESTED_ON: F380Y/beta2Delta
CATEGORY: FALSE
